test system: G-clamp-N3 (biotin conjugate); assay: pull-down binding Z-score (relative to library population); higher = stronger binding; settings: RNA library: Library-1 (pre-miRNA loops + repeats)
Provide the reported pull-down binding Z-score of each item.

pull-down binding Z-score recorded for this sequence, UAUGAAGGUAAGCAUUUUUGUA [hsa-mir-3935] , is -0.00708

AUAGUUUAGAAUUACAUCAAGGGAGAUAACUGU [hsa-let-7a-2] yielded pull-down binding Z-score of 0.705

So for AAAUCCGUGUUUGGACGCUUCUGGUA [hsa-mir-3936] , the logged pull-down binding Z-score turned out to be -0.453

====

Can you tell me pull-down binding Z-score for the items I'm about to list?
test system: TO-N3-2 (biotin conjugate); experiment: pull-down binding Z-score (relative to library population); higher = stronger binding; conditions: RNA library: Library-2
Please respond with just the number, no unit label.

The sequence AUGGUCUCUAUAUUUAUGAUGAUUAA [hsa-mir-889] showed pull-down binding Z-score equal to 0.0111

The recorded pull-down binding Z-score for entry AUGCCUGAGAAUAUAUGAAGGAGGCU [hsa-mir-204] equals 0.965

Entry UUCUCCUUGGGAAAAACAGAGAA [hsa-mir-605] , pull-down binding Z-score reported as -0.414

Measured pull-down binding Z-score of AUUAUGUUUUGGACAUAGAAACAUAAC [hsa-mir-5688] : -0.665

Quick note, pull-down binding Z-score for GGCAUCAGAGGACAGCCGCCUGGUGCC [hsa-mir-4641] landed at 0.46

====

test system: G-clamp-N3 (biotin conjugate); assay: pull-down binding Z-score (relative to library population); higher = stronger binding; conditions: RNA library: Library-1 (pre-miRNA loops + repeats)
experimental readout: pull-down binding Z-score
Respond with the number and no other words.

So, UCGGCACUAUUGUGACUGU [hsa-mir-7855] ? Its pull-down binding Z-score was -0.0938

Measured pull-down binding Z-score, UGAAUUGAAAUGCGUUACAUUCA [hsa-mir-95] : -0.13

The value of pull-down binding Z-score measured for the sequence CUAAUCUCUUAGCACUGAAGAUUAG [hsa-mir-4671] turned out to be -0.0111

The recorded pull-down binding Z-score for entry GUGAGAGAUGCUUCUAGAUCCAGGAGGCAGACCUCAA [hsa-mir-4325] equals -0.658

// recorded pull-down binding Z-score for AGUGGACGAGUCUCAUUA [hsa-mir-3193] : -0.476

Consider UGUAUAGUAUUAUUCAAUACC [hsa-mir-1912] . Its measured pull-down binding Z-score is 0.737

# pull-down binding Z-score of UCAUUUUCCUUAAAAAAUGA [hsa-mir-3128] = -1.07

Reported pull-down binding Z-score for GGUUUCUUAAAAUGGAAUCU [hsa-mir-1255b-1] was 0.385

Record UGUGUGCUGAGAAAAUUCACACA [hsa-mir-5580] , field pull-down binding Z-score: -0.421

The recorded pull-down binding Z-score for CAAGUCCGUCUUCCUGAGAGGUUUG [hsa-mir-133b] is -0.401

pull-down binding Z-score in this record for AGCCACUGCGGUCGACCAUGACCUGGA [hsa-mir-619] : -0.783

pull-down binding Z-score in this record for AGCUGGGGCCGGGU [hsa-mir-4281] : 0.118

Value of measured pull-down binding Z-score for the entry UUUCAGAUAACUCGGGA [hsa-mir-4320] : -0.732

# pull-down binding Z-score of CUUUCUGUGACUUUAAAAGUAAG [hsa-mir-302b] = -0.444

// pull-down binding Z-score lookup, sequence = UAGGAGCUGUGCCUCCUGGCCUAUUCCUGUUCGUG [hsa-mir-8056] , result: 0.294

Memo: AUGAUAUAUUGUGAGAGCCAUGUCAU [hsa-mir-6718] , reported pull-down binding Z-score: 0.0796

Reported pull-down binding Z-score of UGGAGGUGAUGGGGGCAGGGGAUGGGUCUCACCCUCCC [hsa-mir-5088] : 0.537

// sample UGCUUGACCUGAAUGCUACAAGGCA [hsa-mir-103b-2] , its pull-down binding Z-score was -1.12

Notebook: GCUGCACUGUCUCCGUCUGCGG [hsa-mir-4519] , pull-down binding Z-score read as -0.081

The reported value for UGUUCGCUUUAUUUAUGAUGAAUCA [hsa-mir-539] in terms of pull-down binding Z-score is 0.0951

According to the records, this sequence GGAUGAAAGUCAAAGAAUCC [hsa-mir-1262] displays pull-down binding Z-score of -0.564

In plain terms, AUGCACCCAUAUUUUAAUAUCAAACUAUGACAAAUU [hsa-mir-3974] has a documented pull-down binding Z-score of -0.337

Entry under test: GACCAAAAGUCAACAUUAAACAACAAAUCUUGGCC [hsa-mir-5708] . Its pull-down binding Z-score was -1.3

The recorded pull-down binding Z-score for CGGUGGUCCCUCCCG [hsa-mir-3687-1_3687-2] is -0.273

Item: CAGUGGCAUCUGUCAUUG [hsa-mir-4663] | pull-down binding Z-score: -0.635

The measured pull-down binding Z-score associated with UUGAUGUCAGAAUGAGGUGUACCAA [hsa-mir-4714] reads 1.29

Entry CUAUCCUUCCCUUGGAAAAUGAUCUGAG [hsa-mir-4770] — recorded pull-down binding Z-score = -0.925

// AUCCAGUCCACUUAAUUCUGAGAAAGUCCACAGACUGGAUCGGGUCUUGGAUUUUAGCUGGAUUCAU [hsa-mir-6082] : pull-down binding Z-score value = -0.0473

Record GUGGAGUCGGGUCAGACUUCAA [hsa-mir-378c] . Reported pull-down binding Z-score: -1.13

Item: AGCUGUGAAAGUCCUAGCU [hsa-mir-1256] | pull-down binding Z-score: 0.661

According to the records, this sequence UGAUCAUUAUAUGUAUGAUGAGAUCAU [hsa-mir-4528] displays pull-down binding Z-score of 1.33

// pull-down binding Z-score value for CAAGGAAGAGUCACAGUCUCUUCCUUG [hsa-mir-659] : -0.00418

Quick note, pull-down binding Z-score for CACUUUCUGCUCUCUGGUGAAAGUG [hsa-mir-371a] landed at 0.951

Documented pull-down binding Z-score of UUUACUUUUGGCCUCAAGUCAUUGCAGUAAA [hsa-mir-4796] : -0.453

Field pull-down binding Z-score (entry AGGCUGUCUUCAUUCCCUCUUGACCACCC [hsa-mir-6795] ) reads -1.03

For reference, reported pull-down binding Z-score for CCUUCCAAUACCUGUAAGCAGAAGG [hsa-mir-3158-2] stands at 0.355

Reported pull-down binding Z-score for GGGGUCUUGCUCUAUU [hsa-mir-6088] was 0.123

Consider GUCCCAAUACAUGUGGGCC [hsa-mir-586] . Its measured pull-down binding Z-score is -0.0916

pull-down binding Z-score in this record for GGCUGGACAGGAGAGGGCUCACCCAGG [hsa-mir-6775] : 0.487

pull-down binding Z-score in this record for CAAAUCGCCUCUUCAAUGGAUUUG [hsa-mir-133a-1] : 1.23
